Assay: Transport study in Caco-2 cell monolayer
Type: in vitro ADME
Conditions: human, Caco-2, pH 7.4
quantity: Papp B→A at 180 min, 10 μg/mL (×10⁻⁶ cm/s)

INSERT INTO measurements (compound, quantity, value_unit, reported_value) VALUES
  ('COc1ccc(C(C)=O)c(O)c1 [Paeonol, 2’-hydroxy-4’-methoxyacetophenone]', 'Papp B→A at 180 min, 10 μg/mL', '×10⁻⁶ cm/s', 5.32);

====

Test: Transport study in Caco-2 cell monolayer
Type: in vitro ADME
Settings: human, Caco-2, pH 7.4
quantity: Papp A→B at 180 min, 10 μg/mL (×10⁻⁶ cm/s)

INSERT INTO assay_data (molecule, reported_value) VALUES
  ('COc1ccc(C(C)=O)c(O)c1 [Paeonol, 2’-hydroxy-4’-methoxyacetophenone]', 3.65);

====

Test: Transport study in Caco-2 cell monolayer
Format: in vitro ADME
Conditions: human, Caco-2, pH 7.4
quantity: Papp B→A at 180 min, 2.5 μg/mL

INSERT INTO results (compound, reported_value) VALUES
  ('COc1ccc(C(C)=O)c(O)c1 [Paeonol, 2’-hydroxy-4’-methoxyacetophenone]', '4.17 ×10⁻⁶ cm/s');

====

Test: Transport study in Caco-2 cell monolayer
Format: in vitro ADME
Details: human, Caco-2, pH 7.4
quantity: Papp B→A at 180 min, 5 μg/mL

INSERT INTO results (compound, quantity, reported_value) VALUES
  ('COc1ccc(C(C)=O)c(O)c1 [Paeonol, 2’-hydroxy-4’-methoxyacetophenone]', 'Papp B→A at 180 min, 5 μg/mL', '5.19 ×10⁻⁶ cm/s');

====

Assay: Transport study in Caco-2 cell monolayer
Assay type: in vitro ADME
Conditions: human, Caco-2, pH 7.4
quantity: Papp A→B at 180 min, 5 μg/mL (×10⁻⁶ cm/s)

INSERT INTO results (compound, reported_value) VALUES
  ('COc1ccc(C(C)=O)c(O)c1 [Paeonol, 2’-hydroxy-4’-methoxyacetophenone]', 3.62);

====

Test: RAW264.7 cell viability, MTT assay
Type: cell-based
Settings: mouse, RAW 264.7 macrophages
quantity: viability at 24 h, 5 μg/mL

INSERT INTO measurements (compound, quantity, reported_value) VALUES
  ('COc1ccc(C(C)=O)c(O)c1 [Paeonol, 2’-hydroxy-4’-methoxyacetophenone]', 'viability at 24 h, 5 μg/mL', '> 80%');
